Recorded Metric: melting point (°C)
Form entry: value (°C) — number only.

Endpoint output: melting point of CCC[C@@H](c1ccc(OC(F)(F)F)cc1)N1CCN(C2(C)CCN(C(=O)c3c(C)cc(NC(=O)NCC)cc3C)CC2)C[C@@H]1C [Example 30B] . Value?
219

GET /values?readout=melting point&item= CCC[C@@H](c1ccc(OC(F)(F)F)cc1)N1CCN(C2(C)CCN(C(=O)c3c(C)cccc3C)CC2)C[C@@H]1C
237

Could you share which melting point value was measured for CC[C@@H](c1ccc(OC(F)(F)F)cc1)N1CCN(C2CCN(C(=O)c3c(C)ncnc3C)CC2)C[C@@H]1C ?
225

====

I'd be grateful if you could share measured melting point for these entries.

Which melting point reading was recorded for the molecule Cc1cccc(C)c1C(=O)N1CCC(N2CCN([C@@H](C)c3ccccc3)[C@@H](C)C2)CC1 [Example 15] ?
195 °C

Looking for the measured melting point of C[C@H]1CN(C2(C)CCN(C(=O)C3(c4ccc(C#N)cc4)CC3)CC2)CCN1C(c1ccccc1)c1ccccc1 [Example 30E] , can you help?
84 to 90 °C

Any idea what melting point was measured for CC(=O)c1ccc([C@H](C)N2CCN(C3CCN(C(=O)c4c(N)cccc4Cl)CC3)C[C@@H]2C)cc1 [Example 18] ?
210 °C

Requested read-out: melting point. Entry: Cc1cccc(C)c1C(=O)N1CCC(N2CCN([C@@H](C)c3ccc(Cl)cc3)[C@@H](C)C2)CC1 [Example 13]
180 °C (dec.)

Which melting point is listed for CC(=O)c1ccc([C@H](C)N2CCN(C3(C)CCN(C(=O)c4c(C)cccc4C)CC3)C[C@@H]2C)cc1 [Example 22] ?
80 to 85 °C

Fill blank: measured melting point of the molecule CCNC(=O)Nc1cc(C)c(C(=O)N2CCC(C)(N3CCN(C(c4ccccc4)c4ccccc4)[C@@H](C)C3)CC2)c(C)c1 [Example 30D] is ____.
177 to 189 °C

Fill in the blank: the reported melting point of Cc1ncnc(C)c1C(=O)N1CCC(C)(N2CCN(C(c3ccccc3)c3ccccc3)[C@@H](C)C2)CC1 [Example 30C] is ____.
175 to 178 °C

====

Assign melting point to each entry below.

State the recorded melting point for this entry: CCNC(=O)N(C)c1cc(C)c(C(=O)N2CCC(C)(N3CCN(C(c4ccccc4)c4ccccc4)[C@@H](C)C3)CC2)c(C)c1 [Example 30H]
178 to 188 °C

Looking for the measured melting point of CCC[C@@H](c1ccc(OC(F)(F)F)cc1)N1CCN(C2(C)CCN(C(=O)c3c(C)ncnc3C)CC2)C[C@@H]1C [Example 30A] , can you help?
241 °C

# query: melting point of entry Cc1ncnc(C)c1C(=O)N1CCC(C)(N2CCN([C@@H](Cc3ccccc3)c3ccc(C(F)(F)F)cc3)[C@@H](C)C2)CC1
187 to 196 °C

Looking for the measured melting point of Cc1cccc(C)c1C(=O)N1CCC(N2CCN([C@@H](C)c3ccc(-c4ccccc4)cc3)[C@@H](C)C2)CC1 , can you help?
190 °C

====

Where a name gives a salt, the structure may show the parent alone.
Recorded Metric: melting point

Entry Cc1cccc(C)c1C(=O)N1CCC(N2CCN([C@@H](C)c3ccc(Cc4ccc(Cl)cc4)cc3)[C@@H](C)C2)CC1 : reported melting point = ?
170 °C (dec.)

Returns the measured melting point for the input molecule. Input: Cc1ncnc(C)c1C(=O)N1CCC(C)(N2CCN(C(c3ccc(C(F)(F)F)cc3)c3ccc(C(F)(F)F)cc3)[C@@H](C)C2)CC1 [Example 30F]
180 to 192 °C

What value of melting point has been recorded for this entry: Cc1ccnc(C)c1C(=O)N1CCC(N2CCN(C(c3ccccc3)c3ccccc3)[C@@H](C)C2)CC1 (as salt: hydrochloride)
180 to 188 °C (dec.)

Source of measurements: patent US7825121B2
